Assay: Fluorogenic characterization of HELIOS probes on reaction with TCOc
Format: physicochemical
Settings: fluorogenic turn-on ratio of the Me-tetrazines upon reaction with TCOc
Readout type: Fluorescence Enhancement

Field: example entries. Status: answers known.
Cc1nnc(-c2cccc(-c3c(C)c4cc5c(cc4oc3=O)NCCC5)c2)nn1 [HELIOS 388Me]; 11,000-fold
Cc1c(CC(=O)NCc2ccc(-c3nncnn3)cc2)c(=O)oc2c(F)c(O)c(F)cc12 [Marina Blue-Tz, reference compound]; 60-fold
Cc1nnc(-c2cccc(-c3c(C)c4ccc(N)cc4oc3=O)c2)nn1 [HELIOS 347Me]; 2,500-fold

# ---- query compound ----
## Input I'd like to know its Fluorescence Enhancement. The compound in question is Cc1nnc(-c2cccc(-c3c(C)c4cc(F)c(O)c(F)c4oc3=O)c2)nn1 [HELIOS 370Me]
## Output 2,900-fold
